- Tested on: HCT116
- procedure_details: TCF/Wnt firefly luciferase reporter signal relative to plate median (fraction of plate median); higher = higher Wnt reporter signal
- protocol_conditions: 10 µM; treatment time 24 h; reporter: TCF4/Wnt
Entry flag: YES if TCF/Wnt firefly luciferase reporter signal reaches 1; NO if it does not.

Q: Hi team, for COc1cc(Nc2ncc(F)c(Nc3ccc4c(n3)NC(=O)C(C)(C)O4)n2)cc(OC)c1OC [R406(free base)] , is the recorded TCF/Wnt firefly luciferase reporter signal at or above 1?
Ans: YES

Q: Hi team, for CS(=O)(=O)CCNCc1ccc(-c2ccc3ncnc(Nc4ccc(OCc5cccc(F)c5)c(Cl)c4)c3c2)o1 [Lapatinib Ditosylate (Tykerb)] , is the recorded TCF/Wnt firefly luciferase reporter signal at or above 1?
Ans: YES

Q: Hi team, for COCCOc1ccc2c(c1)ncn2-c1ccc2cccc(N3CCC(N)CC3)c2n1 , is the recorded TCF/Wnt firefly luciferase reporter signal at or above 1?
Ans: NO

Q: Hi team, for CS(=O)(=O)N1CCN(Cc2cc3nc(-c4cccc5[nH]ncc45)nc(N4CCOCC4)c3s2)CC1 , is the recorded TCF/Wnt firefly luciferase reporter signal at or above 1?
Ans: YES

Q: Hi team, for COc1cc2ncnc(Nc3ccc(F)c(Cl)c3)c2cc1NC(=O)/C=C/CN1CCCCC1 , is the recorded TCF/Wnt firefly luciferase reporter signal at or above 1?
Ans: NO

Q: Hi team, for Cc1cc(C(=O)NOCCO)c(Nc2ccc(I)cc2F)n(C)c1=O , is the recorded TCF/Wnt firefly luciferase reporter signal at or above 1?
Ans: YES

Q: Hi team, for N#CC[C@H](C1CCCC1)n1cc(-c2ncnc3[nH]ccc23)cn1 , is the recorded TCF/Wnt firefly luciferase reporter signal at or above 1?
Ans: YES

Q: Hi team, for CCc1cnn2c(NCc3ccc[n+]([O-])c3)cc(N3CCCC[C@H]3CCO)nc12 , is the recorded TCF/Wnt firefly luciferase reporter signal at or above 1?
Ans: NO

Q: Hi team, for COc1ccc2c(Oc3ccc(NC(=O)c4c(C)n(CC(C)(C)O)n(-c5ccccc5)c4=O)nc3)ccnc2c1 , is the recorded TCF/Wnt firefly luciferase reporter signal at or above 1?
Ans: YES

* * *

- System: DLD1
- procedure_details: cell viability (CellTiter-Glo) relative to plate median (fraction of plate median); higher = more viable cells
- protocol_conditions: 5 µM; treatment time 24 h; reporter: 7TFP
Provide the reported cell viability of each item.

CC[C@@H]1C(=O)N(C)c2cnc(Nc3ccc(C(=O)N[C@H]4CC[C@H](N5CCN(CC6CC6)CC5)CC4)cc3OC)nc2N1C(C)C ... 1
C=C1C[C@H]2[C@@H]3C=C(C)C4=CC(=O)CC[C@]4(C)[C@H]3CC[C@]2(C)[C@@]1(OC(C)=O)C(C)=O ... 0.99
OC1(c2ccc(Cl)c(C(F)(F)F)c2)CCN(CCCC(c2ccc(F)cc2)c2ccc(F)cc2)CC1 ... 0.982
NC(N)=Nc1nc(CSCC/C(N)=N/S(N)(=O)=O)cs1 ... 1

// next entry
Q: Can you share its cell viability? I mean this compound: CC(C)C[C@@H]1NC(=O)CNC1=O
Ans: 0.991

* * *

- System: SW480
- procedure_details: TCF/Wnt firefly luciferase reporter signal relative to plate median (fraction of plate median); higher = higher Wnt reporter signal
- protocol_conditions: 10 µM; treatment time 24 h; reporter: 7TFP
assay_endpoint: TCF/Wnt firefly luciferase reporter signal

Example results:
CNC(=O)c1ccc(C)c(-n2c(C)cc(OCc3ccc(F)cc3F)c(Br)c2=O)c1 ... 1.02
CN1CCN(c2nc(C3=C(c4c[nH]c5ccccc45)C(=O)NC3=O)c3ccccc3n2)CC1 ... 0.983
Cc1ccc(NC(=O)c2ccc(CN3CCN(C)CC3)cc2)cc1Nc1nc(-c2cccnc2)cs1 ... 1.01
CCN1CCN(c2ccc(Nc3cc(N(C)C(=O)Nc4c(Cl)c(OC)cc(OC)c4Cl)ncn3)cc2)CC1 ... 0.921

Q: Can you share its TCF/Wnt firefly luciferase reporter signal? I mean this compound: CCOc1ccn(-c2ccc(F)cc2)c(=O)c1C(=O)Nc1ccc(Oc2ccnc(N)c2Cl)c(F)c1
Ans: 0.978
